settings: in n-propanol, 308.15 K
reported-property: solubility (mole fraction)
Returns: the value as a bare number; no unit string appended.

Which solubility (mole fraction) is listed for Clc1ccc2c(c1)Nc1ccccc1S2 ?
0.00622

* * *

details: in ethanol, 318.15 K
reported-property: solubility (mole fraction)
Please reply with the number alone, leaving off any unit.

Tell me the measured solubility (mole fraction) of Clc1ccc2c(c1)Nc1ccccc1S2 , please.
0.00756

* * *

settings: in 2-butanone, 313.15 K
reported-property: solubility (mole fraction)

Sample Clc1ccc2c(c1)Nc1ccccc1S2 — what was its solubility (mole fraction)?
0.0683

* * *

conditions: in ethanol, 285.65 K
reported-property: solubility (mole fraction)

Entry Clc1ccc2c(c1)Nc1ccccc1S2 : reported solubility (mole fraction) = ?
0.00446

* * *

conditions: in n-propanol, 313.15 K
reported-property: solubility (mole fraction)
No unit in the answer, only the number.

Would you mind telling me what solubility (mole fraction) value was observed for Clc1ccc2c(c1)Nc1ccccc1S2 ?
0.00678

* * *

settings: in isopropanol, 308.15 K
reported-property: solubility (mole fraction)
Write the number on its own, no unit after it.

// query solubility (mole fraction) value for entry Clc1ccc2c(c1)Nc1ccccc1S2
0.0058

* * *

conditions: in ethyl acetate, 315.65 K
reported-property: solubility (mole fraction)
Format: numeric value only, no unit, no commentary.

Which solubility (mole fraction) value is on record for Clc1ccc2c(c1)Nc1ccccc1S2 ?
0.0575

* * *

details: in 2-butanone, 310.65 K
reported-property: solubility (mole fraction)

Please report the recorded solubility (mole fraction) for Clc1ccc2c(c1)Nc1ccccc1S2 .
0.0646

* * *

details: in acetonitrile, 288.15 K
reported-property: solubility (mole fraction)
// no unit, no text: just the number

Dear colleague, I am looking for the recorded solubility (mole fraction) of the following compound: Clc1ccc2c(c1)Nc1ccccc1S2
0.00406

* * *

details: in n-butanol, 318.15 K
reported-property: solubility (mole fraction)
Form rule: numeric answer, no unit written next to it.

Look up solubility (mole fraction) for this compound: Clc1ccc2c(c1)Nc1ccccc1S2
0.00653

* * *

settings: in n-propanol, 298.15 K
reported-property: solubility (mole fraction)
The response must contain the number and no unit.

Using the record for Clc1ccc2c(c1)Nc1ccccc1S2 , report its solubility (mole fraction).
0.0053

* * *

details: in n-butanol, 298.15 K
reported-property: solubility (mole fraction)
No unit in the answer, only the number.

// solubility (mole fraction) lookup, key: Clc1ccc2c(c1)Nc1ccccc1S2
0.00445

* * *

conditions: in ethanol, 313.15 K
reported-property: solubility (mole fraction)
Give the value as a plain number.

Requested read-out: solubility (mole fraction). Entry: Clc1ccc2c(c1)Nc1ccccc1S2
0.00695

* * *

settings: in ethyl acetate, 298.15 K
reported-property: solubility (mole fraction)
Quick one: just the number, no unit, thanks!

I would be grateful if you could share the reported solubility (mole fraction) for Clc1ccc2c(c1)Nc1ccccc1S2 .
0.0291

* * *

details: in methanol, 300.65 K
reported-property: solubility (mole fraction)
Answer with a number only.

solubility (mole fraction) lookup needed for Clc1ccc2c(c1)Nc1ccccc1S2 , thanks.
0.0062

* * *

settings: in 2-butanone, 303.15 K
reported-property: solubility (mole fraction)
// keep it numeric: no unit symbol after the value

solubility (mole fraction) lookup needed for Clc1ccc2c(c1)Nc1ccccc1S2 , thanks.
0.0546

* * *

conditions: in n-butanol, 295.65 K
reported-property: solubility (mole fraction)
Keep it simple and answer with nothing but the number.

Look up solubility (mole fraction): Clc1ccc2c(c1)Nc1ccccc1S2
0.00422

* * *

conditions: in ethyl acetate, 310.65 K
reported-property: solubility (mole fraction)

Find the recorded solubility (mole fraction) belonging to Clc1ccc2c(c1)Nc1ccccc1S2 and report it.
0.0484

* * *

conditions: in acetonitrile, 305.65 K
reported-property: solubility (mole fraction)

GET /values?readout=solubility (mole fraction)&item= Clc1ccc2c(c1)Nc1ccccc1S2
0.00633

* * *

conditions: in isopropanol, 318.15 K
reported-property: solubility (mole fraction)
Output: the number by itself.

Any idea what its solubility (mole fraction) is? The compound is Clc1ccc2c(c1)Nc1ccccc1S2
0.00687

* * *

details: in n-propanol, 293.15 K
reported-property: solubility (mole fraction)
Reply with the value as a number alone.

What value of solubility (mole fraction) has been recorded for this entry: Clc1ccc2c(c1)Nc1ccccc1S2
0.00487

* * *

settings: in ethanol, 305.65 K
reported-property: solubility (mole fraction)
Give only the figure.

Find the recorded solubility (mole fraction) belonging to Clc1ccc2c(c1)Nc1ccccc1S2 and report it.
0.00617

* * *

conditions: in isopropanol, 303.15 K
reported-property: solubility (mole fraction)
Keep it simple and answer with nothing but the number.

Need solubility (mole fraction) of Clc1ccc2c(c1)Nc1ccccc1S2 , thanks.
0.00536

* * *

details: in isopropanol, 283.15 K
reported-property: solubility (mole fraction)
No unit in the answer, only the number.

Given Clc1ccc2c(c1)Nc1ccccc1S2 , state its recorded solubility (mole fraction).
0.0038

* * *

conditions: in 2-butanone, 318.15 K
reported-property: solubility (mole fraction)
// response body must contain only the number

So what does the record say about solubility (mole fraction) for Clc1ccc2c(c1)Nc1ccccc1S2 ?
0.0771

* * *

conditions: in n-butanol, 308.15 K
reported-property: solubility (mole fraction)
Enter a number only.

# solubility (mole fraction) lookup, item Clc1ccc2c(c1)Nc1ccccc1S2
0.00543

* * *

conditions: in n-propanol, 303.15 K
reported-property: solubility (mole fraction)
Answer field: number only, no words.

Look up solubility (mole fraction) for this compound: Clc1ccc2c(c1)Nc1ccccc1S2
0.00575

* * *

details: in acetonitrile, 293.15 K
reported-property: solubility (mole fraction)

Which value of solubility (mole fraction) has been reported for Clc1ccc2c(c1)Nc1ccccc1S2 in the records?
0.00467

* * *

conditions: in n-butanol, 285.65 K
reported-property: solubility (mole fraction)
# answer = number (no unit)

solubility (mole fraction) lookup needed for Clc1ccc2c(c1)Nc1ccccc1S2 , thanks.
0.00344

* * *

conditions: in n-butanol, 313.15 K
reported-property: solubility (mole fraction)
Answer with a bare number; do not write a unit.

Could you tell me which solubility (mole fraction) is on file for Clc1ccc2c(c1)Nc1ccccc1S2 ?
0.00596

* * *

details: in n-propanol, 315.65 K
reported-property: solubility (mole fraction)
Keep the answer to the number alone.

Record request: solubility (mole fraction) value, item Clc1ccc2c(c1)Nc1ccccc1S2
0.00705

* * *

conditions: in acetone, 285.65 K
reported-property: solubility (mole fraction)
I'd appreciate a reply containing only the number, no unit.

I am curious: what solubility (mole fraction) value has been reported for Clc1ccc2c(c1)Nc1ccccc1S2 ?
0.0281

* * *

details: in isopropanol, 290.65 K
reported-property: solubility (mole fraction)
Keep the answer to the number alone.

Query: solubility (mole fraction); subject: Clc1ccc2c(c1)Nc1ccccc1S2
0.00433

* * *

conditions: in n-butanol, 305.65 K
reported-property: solubility (mole fraction)
Output spec: single numeric token, no unit.

Requested read-out: solubility (mole fraction). Entry: Clc1ccc2c(c1)Nc1ccccc1S2
0.00518

* * *

conditions: in acetone, 295.65 K
reported-property: solubility (mole fraction)
Lab note: jot the number down without any unit.

Given Clc1ccc2c(c1)Nc1ccccc1S2 , state its recorded solubility (mole fraction).
0.0356

* * *

settings: in 2-butanone, 315.65 K
reported-property: solubility (mole fraction)
Returns: the value as a bare number; no unit string appended.

Would you kindly share the measured solubility (mole fraction) for Clc1ccc2c(c1)Nc1ccccc1S2 ?
0.0727

* * *

settings: in acetonitrile, 318.15 K
reported-property: solubility (mole fraction)
I only need the number, thanks.

Field request: solubility (mole fraction) | item: Clc1ccc2c(c1)Nc1ccccc1S2
0.00837

* * *

settings: in acetone, 290.65 K
reported-property: solubility (mole fraction)
Form rule: numeric answer, no unit written next to it.

Item Clc1ccc2c(c1)Nc1ccccc1S2 has what recorded solubility (mole fraction)?
0.0317

* * *

conditions: in acetonitrile, 290.65 K
reported-property: solubility (mole fraction)
Reply with just the number.

Request the reported solubility (mole fraction) associated with Clc1ccc2c(c1)Nc1ccccc1S2
0.00435

* * *

conditions: in isopropanol, 285.65 K
reported-property: solubility (mole fraction)
Please give only the number in your answer, with no unit.

Dear colleague, I am looking for the recorded solubility (mole fraction) of the following compound: Clc1ccc2c(c1)Nc1ccccc1S2
0.00397

* * *

details: in ethanol, 283.15 K
reported-property: solubility (mole fraction)
Number, no unit, nothing else.

Bench note: what solubility (mole fraction) did Clc1ccc2c(c1)Nc1ccccc1S2 show?
0.00431

* * *

details: in ethanol, 298.15 K
reported-property: solubility (mole fraction)
In your answer, state the number alone without any accompanying words.

Would you mind telling me what solubility (mole fraction) value was observed for Clc1ccc2c(c1)Nc1ccccc1S2 ?
0.00546

* * *

conditions: in isopropanol, 298.15 K
reported-property: solubility (mole fraction)

Would you kindly share the measured solubility (mole fraction) for Clc1ccc2c(c1)Nc1ccccc1S2 ?
0.00493
